Listed below: EC50 values for each entry.
# test-system: GPR120 (Homo sapiens, UniProt Q5NUL3)
# Construct: expressed in transfected cells; host or cells: CHO mitoPhotinaGPR120 cells
# Sequence (Q5NUL3 1-361): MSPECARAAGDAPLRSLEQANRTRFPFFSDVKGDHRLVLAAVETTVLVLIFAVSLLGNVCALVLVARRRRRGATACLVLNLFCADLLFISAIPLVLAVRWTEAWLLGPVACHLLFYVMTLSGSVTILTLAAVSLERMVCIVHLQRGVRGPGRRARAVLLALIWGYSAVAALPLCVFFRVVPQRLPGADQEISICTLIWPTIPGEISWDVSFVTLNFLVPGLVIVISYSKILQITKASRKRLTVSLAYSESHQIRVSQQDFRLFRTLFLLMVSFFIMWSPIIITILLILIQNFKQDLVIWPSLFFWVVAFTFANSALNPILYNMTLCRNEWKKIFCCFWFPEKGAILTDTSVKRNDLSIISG
# protocol-text: GPR120 agonism in CHO mitoPhotinaGPR120 cell based assay with fluorescent (Fluo-8 calcium, FLIPRTetra) readout, Agonist Mode, dose response
# experimental-context: CHO mitoPhotinaGPR120 cells, Fluo-8 No Wash Ca2+ dye, dose response in quadruplicate, 0.0033% fatty acid free BSA
value-kind: EC50 (µM)

1) Cc1nn(-c2ccccc2)c(C(F)(F)Oc2c(F)cc(CCCO)cc2F)c1C#N = 0.52
2) Cc1nn(-c2ccccc2)c(COc2ccc(C#N)cc2F)c1C#N = 3.39
3) COc1ccc(OCc2c(C#N)c(C)nn2-c2ccccc2)cc1 = 1.31
4) Cc1nn(Cc2ccccc2)c(COc2c(F)cc(CCCO)cc2F)c1C#N = 0.31
5) Cc1nn(-c2ccccc2)c(COc2ccc(-c3nc(CO)cs3)cc2)c1C#N = 3.36
6) Cc1nn(-c2ccccc2)c(COc2c(F)cc(CO)cc2F)c1C#N = 1.33
7) Cc1nn(-c2ccccc2)c(COc2ccc(CCC3CCNCC3)cc2)c1C#N = 17.7
8) Cc1nn(-c2ccccc2)c(C(C)Oc2c(F)cc(CCCO)cc2F)c1C#N (stereo not drawn) = 0.33
9) Cc1cc(CO)ccc1OCc1c(C#N)c(C)nn1-c1ccccc1 = 0.86
